B1: tRNA (parent)
chain: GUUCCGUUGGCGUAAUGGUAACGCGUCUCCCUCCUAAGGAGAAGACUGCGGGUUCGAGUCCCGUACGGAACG

variants of: B1; assay: yeast fitness relative to wild type (ratio to wild type); higher = fitter; tRNA-Arg(CCU), competitive growth, 37 C, YPD
Fewer inactive variants are shown than the library holds.
Exercise: for every item that follows, state its recorded yeast fitness.
Lab note: jot the number down without any unit.

Entry under review: C4U A57U . Reported yeast fitness?
0.635

# query: yeast fitness of entry G9A G44C C66U
0.552

What yeast fitness value was documented for this variant, C29U A45C ?
0.778

What value of measured yeast fitness is listed for A43G A57G ?
0.924

I would be grateful if you could share the reported yeast fitness for C24A U26C .
0.678

Please give the measured yeast fitness for this variant: U2C C22U
0.842

Looking for the measured yeast fitness of C4A A40C , can you help?
0.812

yeast fitness for C5A G12C ?
0.746

Reported yeast fitness, variant C31U C61U A70U : ____
0.696

Would you mind telling me what yeast fitness value was observed for A40G U64C ?
0.972
